- Assayed system: T1, rat NMUR1-ATG (rat, UniProt Q9JJI5 1-425)
- T1 construct: whole, on cells; Cell line with engineered ATG start codon in place of the genomic TTG; also called rat R1-ATG
- T1 sequence (looked up): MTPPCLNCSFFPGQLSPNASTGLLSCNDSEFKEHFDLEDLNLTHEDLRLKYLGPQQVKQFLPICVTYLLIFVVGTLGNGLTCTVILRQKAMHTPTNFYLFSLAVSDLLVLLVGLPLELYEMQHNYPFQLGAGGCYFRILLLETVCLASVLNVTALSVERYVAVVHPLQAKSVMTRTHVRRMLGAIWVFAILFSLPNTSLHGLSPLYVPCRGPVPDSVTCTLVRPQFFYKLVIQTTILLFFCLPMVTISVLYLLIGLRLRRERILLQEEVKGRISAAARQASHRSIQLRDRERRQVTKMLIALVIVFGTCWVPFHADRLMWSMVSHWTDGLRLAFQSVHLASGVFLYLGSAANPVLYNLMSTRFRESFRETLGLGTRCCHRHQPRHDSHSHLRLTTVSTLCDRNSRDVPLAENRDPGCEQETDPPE
- Experiment description: 125I-hNMU-25 displacement, cell membranes
No end group written: not given here.
Measure: IC50 (nM)
One number for each entry, in nM.

Value of measured IC50 for the entry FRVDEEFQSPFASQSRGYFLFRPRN-NH2 (also called hNMU-25; native hNMU) [human NMU-25] : 1.2
